assay: AUC (0 to infinity) in rat at 2 mg/kg, po; type: ADME, organism-based; set-up: time infinity, dose 2 mg/kg, route oral; details: plasma

{"smiles.text": "CCS(=O)(=O)Nc1cc(F)c(-c2ccc(C#N)n2C)c(F)c1", "AUC(0-inf) [ng·h/mL]": 15200}

====

assay: AUC (0 to infinity) in cynomolgus monkey at 2 mg/kg, iv; format: ADME, organism-based, Macaca fascicularis; design: time infinity, dose 2 mg/kg, route intravenous; details: plasma
quantity.measured: AUC(0-inf) (ng·h/mL)

{"smiles.text": "CCS(=O)(=O)Nc1cc(F)c(-c2ccc(C#N)n2C)c(F)c1", "quantity.measured": "AUC(0-inf)", "reading.unit": "ng·h/mL", "value": 18000}

====

target: Glucocorticoid receptor (Homo sapiens); test: Antagonist activity at glucocorticoid receptor by cellular reporter gene assay; assay type: functional
Sequence (P04150 whole entry): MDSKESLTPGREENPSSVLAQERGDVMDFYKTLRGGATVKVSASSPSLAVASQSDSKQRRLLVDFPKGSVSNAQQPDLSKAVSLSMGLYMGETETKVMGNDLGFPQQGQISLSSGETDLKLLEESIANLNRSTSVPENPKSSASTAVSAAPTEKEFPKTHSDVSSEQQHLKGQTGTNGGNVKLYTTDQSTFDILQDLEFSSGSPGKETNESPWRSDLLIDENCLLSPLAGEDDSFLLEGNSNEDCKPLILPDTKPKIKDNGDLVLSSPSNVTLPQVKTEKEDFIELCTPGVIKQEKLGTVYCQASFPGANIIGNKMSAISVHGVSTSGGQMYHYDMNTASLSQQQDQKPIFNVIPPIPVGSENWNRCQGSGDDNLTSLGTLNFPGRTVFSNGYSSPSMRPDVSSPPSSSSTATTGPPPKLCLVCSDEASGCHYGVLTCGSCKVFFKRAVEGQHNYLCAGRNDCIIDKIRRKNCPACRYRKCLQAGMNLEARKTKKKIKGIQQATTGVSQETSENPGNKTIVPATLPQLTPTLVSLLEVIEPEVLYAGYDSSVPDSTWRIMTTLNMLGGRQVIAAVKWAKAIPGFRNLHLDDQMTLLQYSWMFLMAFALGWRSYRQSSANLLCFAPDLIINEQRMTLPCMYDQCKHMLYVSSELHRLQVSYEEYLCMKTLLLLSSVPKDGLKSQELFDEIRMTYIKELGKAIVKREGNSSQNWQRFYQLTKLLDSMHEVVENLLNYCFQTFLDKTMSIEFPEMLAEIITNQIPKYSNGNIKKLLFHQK
pIC50: −log10 of the molar value.
quantity.measured: pIC50

{"smiles.text": "COC[C@]1(OC)CC[C@H]2[C@@H]3CCC4=CC(=O)CCC4=C3[C@@H](c3ccc(/C=N/O)cc3)C[C@@]21C", "quantity.measured": "pIC50", "value": 6.92}

====

assay: Clearance in rat at 2 mg/kg, iv; format: ADME, organism-based; parameters: dose 2 mg/kg, route intravenous; conditions: in vivo

{"smiles.text": "CCS(=O)(=O)Nc1cc(F)c(-c2ccc(C#N)n2C)c(F)c1", "clearance (L/h/kg)": 0.156}

====

assay: Cmax in in ovariectomized rhesus monkey at 5 mg/kg/day, po; format: ADME, organism-based, Macaca mulatta; parameters: dose 5 mg/kg/day, route oral; settings: female, in vivo
quantity.measured: Cmax (µM)

{"smiles.text": "CCS(=O)(=O)Nc1cc(F)c(-c2ccc(C#N)n2C)c(F)c1", "value": 8.8}

====

test: Oral bioavailability in rat at 2 mg/kg; format: ADME, organism-based; details: in vivo

{"smiles.text": "CCS(=O)(=O)Nc1cc(F)c(-c2ccc(C#N)n2C)c(F)c1", "bioavailability": "98.5%"}

====

target: Estrogen receptor (Homo sapiens, UniProt P03372); test: Antagonist activity at estrogen receptor by cellular reporter gene assay; type: functional
Sequence (P03372 whole entry): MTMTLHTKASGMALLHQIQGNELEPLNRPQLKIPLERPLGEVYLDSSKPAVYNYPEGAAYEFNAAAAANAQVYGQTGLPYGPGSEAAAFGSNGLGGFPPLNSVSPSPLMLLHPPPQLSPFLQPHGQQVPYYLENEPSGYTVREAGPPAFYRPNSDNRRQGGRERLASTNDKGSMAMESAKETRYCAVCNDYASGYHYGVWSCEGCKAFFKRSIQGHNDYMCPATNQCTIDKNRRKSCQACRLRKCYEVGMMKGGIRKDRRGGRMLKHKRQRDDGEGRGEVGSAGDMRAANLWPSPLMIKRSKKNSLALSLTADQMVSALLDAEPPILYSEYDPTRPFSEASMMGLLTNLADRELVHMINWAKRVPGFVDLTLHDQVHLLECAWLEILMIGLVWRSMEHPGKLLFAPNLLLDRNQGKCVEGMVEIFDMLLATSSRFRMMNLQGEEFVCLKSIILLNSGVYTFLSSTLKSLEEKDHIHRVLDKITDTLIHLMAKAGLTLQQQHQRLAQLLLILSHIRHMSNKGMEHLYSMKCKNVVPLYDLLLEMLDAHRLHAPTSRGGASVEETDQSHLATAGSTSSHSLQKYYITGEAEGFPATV
pIC50: −log10 of the molar value.

{"smiles.text": "COC[C@]1(OC)CC[C@H]2[C@@H]3CCC4=CC(=O)CCC4=C3[C@@H](c3ccc(/C=N/O)cc3)C[C@@]21C", "pIC50": 5.70}

====

Readings of IC50 for the listed compounds
target: Progesterone receptor (Homo sapiens); assay: Antagonist activity at progesterone receptor by cellular reporter gene assay; type: functional
Sequence (P06401 whole entry): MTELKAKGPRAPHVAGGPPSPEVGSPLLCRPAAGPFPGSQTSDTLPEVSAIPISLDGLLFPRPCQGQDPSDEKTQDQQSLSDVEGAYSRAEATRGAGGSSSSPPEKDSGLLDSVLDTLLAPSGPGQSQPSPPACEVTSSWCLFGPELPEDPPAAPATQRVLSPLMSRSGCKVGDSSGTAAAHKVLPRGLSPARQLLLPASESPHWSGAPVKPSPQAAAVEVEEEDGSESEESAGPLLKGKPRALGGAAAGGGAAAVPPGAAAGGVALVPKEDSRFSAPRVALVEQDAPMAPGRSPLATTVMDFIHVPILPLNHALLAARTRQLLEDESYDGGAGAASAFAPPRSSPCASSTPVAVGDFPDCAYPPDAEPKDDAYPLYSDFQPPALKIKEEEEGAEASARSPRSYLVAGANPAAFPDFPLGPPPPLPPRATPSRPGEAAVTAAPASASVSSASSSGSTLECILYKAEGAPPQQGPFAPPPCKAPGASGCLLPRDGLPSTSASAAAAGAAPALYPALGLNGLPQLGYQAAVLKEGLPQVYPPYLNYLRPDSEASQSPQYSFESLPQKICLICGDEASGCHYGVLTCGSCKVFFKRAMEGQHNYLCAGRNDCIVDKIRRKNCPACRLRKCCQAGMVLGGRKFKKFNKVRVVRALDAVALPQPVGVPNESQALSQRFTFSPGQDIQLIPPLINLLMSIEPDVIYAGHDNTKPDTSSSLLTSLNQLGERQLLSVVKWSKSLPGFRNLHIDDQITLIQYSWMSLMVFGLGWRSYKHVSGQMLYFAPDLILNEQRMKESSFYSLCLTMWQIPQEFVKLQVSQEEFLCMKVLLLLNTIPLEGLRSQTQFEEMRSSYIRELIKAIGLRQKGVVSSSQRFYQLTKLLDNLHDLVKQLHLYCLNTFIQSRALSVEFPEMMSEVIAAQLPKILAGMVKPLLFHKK

{"compound": "COC[C@]1(OC)CC[C@H]2[C@@H]3CCC4=CC(=O)CCC4=C3[C@@H](c3ccc(/C=N/O)cc3)C[C@@]21C [ASOPRISNIL]", "IC50 / nM": 0.3}
{"compound": "CCS(=O)(=O)Nc1cc(F)c(-c2ccc(C#N)n2C)c(F)c1", "IC50 / nM": 11.7}

====

assay: Volume of distribution at steady state in rat at 2 mg/kg, iv; format: ADME, organism-based; design: dose 2 mg/kg, route intravenous; details: in vivo, read-out: Vdss

{"smiles.text": "CCS(=O)(=O)Nc1cc(F)c(-c2ccc(C#N)n2C)c(F)c1", "reading.unit": "L/kg", "Vd": 0.5}

====

assay: Fraction unbound in rat plasma; type: ADME, cell-free

{"smiles.text": "CCS(=O)(=O)Nc1cc(F)c(-c2ccc(C#N)n2C)c(F)c1", "fraction unbound": 0.019}

====

test: Oral bioavailability in cynomolgus monkey at 2 mg/kg; type: ADME, organism-based, Macaca fascicularis; settings: in vivo
quantity.measured: bioavailability

{"smiles.text": "CCS(=O)(=O)Nc1cc(F)c(-c2ccc(C#N)n2C)c(F)c1", "value": "69%"}

====

tested on: Salmonella typhimurium; assay: Mutagenicity in Salmonella typhimurium in presence of liver S9 fraction by non-GLP Ames test; assay type: toxicity, organism-based; details: salmonella enterica subsp. enterica serovar typhimurium

{"smiles.text": "CCS(=O)(=O)Nc1cc(F)c(-c2ccc(C#N)n2C)c(F)c1", "Activity": "Non-toxic"}
{"smiles.text": "CCS(=O)(=O)Nc1ccc(-c2ccc(C#N)n2C)cc1", "Activity": "Toxic"}
{"smiles.text": "Cn1c(C#N)ccc1-c1ccc(N)cc1", "Activity": "Toxic"}
{"smiles.text": "CCS(=O)(=O)Nc1ccc(-c2ccc(C#N)n2C)c(C(F)(F)F)c1", "Activity": "Non-toxic"}
{"smiles.text": "Cn1c(C#N)ccc1-c1ccc(NS(C)(=O)=O)cc1F", "Activity": "Non-toxic"}

====

assay: Cmax in cynomolgus monkey at 2 mg/kg, po; format: ADME, organism-based, Macaca fascicularis; parameters: dose 2 mg/kg, route oral; details: in vivo
quantity.measured: Cmax (ng/mL)

{"smiles.text": "CCS(=O)(=O)Nc1cc(F)c(-c2ccc(C#N)n2C)c(F)c1", "value": 5100}

====

test: AUC (0 to infinity) in cynomolgus monkey at 2 mg/kg, po; format: ADME, organism-based, Macaca fascicularis; set-up: time infinity, dose 2 mg/kg, route oral; details: plasma
quantity.measured: AUC(0-inf) (ng·h/mL)

{"smiles.text": "CCS(=O)(=O)Nc1cc(F)c(-c2ccc(C#N)n2C)c(F)c1", "value": 13700}
